Assignment: determine reported IC50 for the given compounds.
Biological target: PTP-1B (Homo sapiens)
Construct: PTP-1B (purified, 1 mg/mL) as a 1:250 dilution
Sequence (P18031 1-321 limits assumed): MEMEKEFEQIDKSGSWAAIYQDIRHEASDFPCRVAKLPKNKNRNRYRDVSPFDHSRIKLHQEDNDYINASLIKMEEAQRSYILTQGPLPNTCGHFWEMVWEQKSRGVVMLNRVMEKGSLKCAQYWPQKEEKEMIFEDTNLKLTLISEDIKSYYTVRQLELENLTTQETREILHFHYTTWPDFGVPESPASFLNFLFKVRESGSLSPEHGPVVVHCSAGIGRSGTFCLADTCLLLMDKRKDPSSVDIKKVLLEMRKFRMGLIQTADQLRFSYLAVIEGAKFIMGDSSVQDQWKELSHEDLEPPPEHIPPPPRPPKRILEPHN
Test: pNPP assay for tyrosine phosphatase inhibitory activity
Assay type: biochemical
Settings: Table 2; pNPP substrate 10 mM, 30° C., 10 minutes, absorbance at 405 nm

(Q) Reported IC50 for COCCCN(Cc1ccc(C(F)(F)P(=O)(O)O)c(Br)c1)c1ncc(-c2ccc(S(C)(=O)=O)cc2)o1 : what is it?
(A) 0.1 to 0.5 µM

(Q) Entry CC(C)OC(=O)OC(C)OP(=O)(O)C(F)(F)c1ccc(CN(c2ccc(F)cc2)c2ncc(-c3ccc(S(C)(=O)=O)cc3)o2)cc1Br (stereo not drawn) please
(A) 10 to 100 µM

(Q) Entry O=C(O)c1ccccc1-c1ccc(-c2cnc(N(Cc3ccc(C(F)(F)P(=O)(O)O)c(Cl)c3)c3ccc(Cl)cc3)o2)cc1 please
(A) 0.1 to 0.5 µM

(Q) Entry O=P(O)(O)C(F)(F)c1ccc(CN(c2ccc(F)cc2)c2ncc(-c3ccc(-c4nn[nH]n4)cc3)o2)cc1Br please
(A) < 0.1 µM

(Q) Entry CC(C)OC(=O)OC(C)OP(=O)(O)C(F)(F)c1ccc(CN(c2ccc(Cl)c(Cl)c2)c2ncc(-c3ccc(S(C)(=O)=O)cc3)o2)cc1Br (stereo not drawn) please
(A) 10 to 100 µM

(Q) Entry CS(=O)(=O)c1ccc(-c2cnc(N(Cc3ccc(C(F)(F)P(=O)(O)O)c(Cl)c3)c3ccccc3)o2)cc1 please
(A) 0.1 to 0.5 µM

(Q) Entry CS(=O)(=O)c1ccc(-c2cnc(N(Cc3ccc(C(F)(F)P(=O)(O)O)c(Cl)c3)c3ccc(Cl)c(Cl)c3)o2)cc1 please
(A) 0.1 to 0.5 µM

(Q) Entry CCCCCCCCCCCCCCCCOCCCOP(=O)(O)C(F)(F)c1ccc(CN(c2ccc(F)cc2)c2ncc(-c3ccc(S(C)(=O)=O)cc3)o2)cc1Br please
(A) 1 to 10 µM

(Q) Entry CS(=O)(=O)c1ccc(CN(Cc2ccc(C(F)(F)P(=O)(O)O)c(Br)c2)c2ncc(-c3ccc(S(C)(=O)=O)cc3)o2)cc1 please
(A) 0.5 to 1 µM

(Q) Entry CS(=O)(=O)c1ccc(-c2cnc(N(Cc3ccc(C(F)(F)P(=O)(O)O)c(Cl)c3)c3ccc(F)cc3)o2)cc1 please
(A) 0.1 to 0.5 µM

(Q) Entry O=C(O)c1ccccc1-c1ccc(-c2cnc(N(Cc3ccc(C(F)(F)P(=O)(O)O)c(Br)c3)c3ccccc3)o2)cc1 please
(A) 0.1 to 0.5 µM

(Q) Entry O=C(O)c1ccccc1-c1ccc(-c2cnc(N(Cc3ccc(C(F)(F)P(=O)(O)O)c(Br)c3)c3ccc(F)cc3)o2)cc1 please
(A) 0.1 to 0.5 µM

(Q) Entry CCOC(=O)C(C)NP(=O)(O)C(F)(F)c1ccc(CN(c2ccc(Cl)c(Cl)c2)c2ncc(-c3ccc(S(C)(=O)=O)cc3)o2)cc1Br (stereo not drawn) please
(A) 0.1 to 0.5 µM

(Q) Entry CCCCCCCCCCCCCCCCOCCCOP(=O)(O)C(F)(F)c1ccc(CN(c2ccc(Cl)c(Cl)c2)c2ncc(-c3ccc(S(C)(=O)=O)cc3)o2)cc1Br please
(A) 1 to 10 µM

(Q) Entry COc1ccccc1N(Cc1ccc(C(F)(F)P(=O)(O)O)c(Cl)c1)c1ncc(-c2ccc(S(C)(=O)=O)cc2)o1 please
(A) 0.5 to 1 µM
